test system: panel of 240 cancer cell lines; test: 10-day growth/death assay (Eurofins panel); assay type: cell-based; conditions: Homo sapiens, CCF-STTG1, CCF-STTG1; read-out: gIC50
readout label: IC50 (nM)
Numbers only, in nM.

Can you look up the measured IC50 of O=C(NC[C@H](O)CN1CCc2ccccc2C1)c1ccnc(NC2CCC2)c1 for me?
115

* * *

test system: panel of 240 cancer cell lines; test: 10-day growth/death assay (Eurofins panel); assay type: cell-based; conditions: Homo sapiens, CRO-AP2, CRO-AP2; read-out: gIC50
readout label: IC50 (nM)
Answers are plain numbers, in nM.

Hi! What's the reported IC50 for O=C(NC[C@H](O)CN1CCc2ccccc2C1)c1ccnc(NC2CCC2)c1 on panel of 240 cancer cell lines?
250

* * *

test system: panel of hematologic and solid cancer lines; assay: 6-day in vitro growth/death assay; assay type: cell-based, human; details: Homo sapiens, SNU-16, SNU16; read-out: gIC50
readout label: pIC50
One number for each entry, as −log10 of the molar value.

Can you look up the measured pIC50 of O=C(NC[C@H](O)CN1CCc2ccccc2C1)c1ccnc(NC2CCC2)c1 for me?
6.76

* * *

Tested on: panel of hematologic and solid cancer lines
Assay: 6-day in vitro growth/death assay
Assay type: cell-based, human
Settings: Homo sapiens, U138-MG, U138MG; read-out: gIC50
Procedure: To further develop these molecules and to guide clinical strategy, it was necessary to understand sensitivity in preclinical models by assessing the anti-tumour activity of the PRMT5 inhibitors in various cancers. Cell lines were obtained from ATCC or DSMZ and were grown in recommended medium, which was most frequently RPMI-1640 containing 10% FBS. Cell line proliferation assays, Western blotting, qRT-PCR, and cell cycle analyses were performed as described previously[27],[28]. […]
pIC50: −log10 of the molar value.
readout label: pIC50

Hi! What's the reported pIC50 for O=C(NC[C@H](O)CN1CCc2ccccc2C1)c1ccnc(NC2CCC2)c1 [GSK3203591] on panel of hematologic and solid cancer lines?
< 4.53

* * *

test system: panel of hematologic and solid cancer lines; test: 6-day in vitro growth/death assay; assay type: cell-based, human; details: Homo sapiens, MDA-MB-157, MDA-MB-157; read-out: gIC50
readout label: IC50 (µM)
Numbers only, in µM.

Can you look up the measured IC50 of O=C(NC[C@H](O)CN1CCc2ccccc2C1)c1ccnc(NC2CCC2)c1 for me?
3.25

* * *

tested on: panel of 240 cancer cell lines; experiment: 10-day growth/death assay (Eurofins panel); assay type: cell-based; settings: Homo sapiens, 786-0, 786-O; read-out: gIC50
readout label: pIC50
Answers are plain numbers, as −log10 of the molar value.

Can you look up the measured pIC50 of O=C(NC[C@H](O)CN1CCc2ccccc2C1)c1ccnc(NC2CCC2)c1 for me?
7.69

* * *

tested on: panel of hematologic and solid cancer lines; assay: 6-day in vitro growth/death assay; format: cell-based, human; details: Homo sapiens, CAL-29; read-out: gIC50
readout label: IC50 (µM)
One number for each entry, in µM.

Can you look up the measured IC50 of O=C(NC[C@H](O)CN1CCc2ccccc2C1)c1ccnc(NC2CCC2)c1 [GSK3203591] for me?
0.817

* * *

test system: panel of 240 cancer cell lines; assay: 10-day growth/death assay (Eurofins panel); type: cell-based; conditions: Homo sapiens, SH-4, SH-4; read-out: gIC50
readout label: pIC50
Numbers only, as −log10 of the molar value.

Hi! What's the reported pIC50 for O=C(NC[C@H](O)CN1CCc2ccccc2C1)c1ccnc(NC2CCC2)c1 on panel of 240 cancer cell lines?
7.12

* * *

system: panel of 240 cancer cell lines; experiment: 10-day growth/death assay (Eurofins panel); type: cell-based; conditions: Homo sapiens, SK-LMS-1, SK-LMS-1; read-out: gIC50
readout label: IC50 (nM)
Answers are plain numbers, in nM.

Can you look up the measured IC50 of O=C(NC[C@H](O)CN1CCc2ccccc2C1)c1ccnc(NC2CCC2)c1 for me?
113

* * *

system: panel of hematologic and solid cancer lines; experiment: 6-day in vitro growth/death assay; format: cell-based, human; settings: Homo sapiens, NCI-H2170, NCI-H2170; read-out: gIC50
readout label: IC50 (µM)
Give bare numbers, in µM.

Can you look up the measured IC50 of O=C(NC[C@H](O)CN1CCc2ccccc2C1)c1ccnc(NC2CCC2)c1 for me?
6.39

* * *

test system: panel of hematologic and solid cancer lines; assay: 6-day in vitro growth/death assay; assay type: cell-based, human; settings: Homo sapiens, SU-DHL-16, SU-DHL-16; read-out: gIC50
Consider the following molecules; for each one, report its IC50.
Answer with the number, then the unit.

Can you look up the measured IC50 of CC(=O)N1CCC(Nc2cc(C(=O)NC[C@H](O)CN3CCc4ccccc4C3)ncn2)CC1 for me?
98.9 nM

# next molecule below
Can you look up the measured IC50 of O=C(NC[C@H](O)CN1CCc2ccccc2C1)c1ccnc(NC2CCC2)c1 for me?
124 nM

* * *

Tested on: panel of hematologic and solid cancer lines
Assay: 6-day in vitro growth/death assay
Type: cell-based, human
Conditions: Homo sapiens, Lu-99, LU-99; read-out: gIC50
Description: To further develop these molecules and to guide clinical strategy, it was necessary to understand sensitivity in preclinical models by assessing the anti-tumour activity of the PRMT5 inhibitors in various cancers. Cell lines were obtained from ATCC or DSMZ and were grown in recommended medium, which was most frequently RPMI-1640 containing 10% FBS. Cell line proliferation assays, Western blotting, qRT-PCR, and cell cycle analyses were performed as described previously[27],[28]. […]
readout label: IC50 (µM)
Give bare numbers, in µM.

Can you look up the measured IC50 of O=C(NC[C@H](O)CN1CCc2ccccc2C1)c1ccnc(NC2CCC2)c1 [GSK3203591] for me?
5.3

* * *

test system: panel of hematologic and solid cancer lines; assay: 6-day in vitro growth/death assay; type: cell-based, human; details: Homo sapiens, AML-193; read-out: gIC50
readout label: pIC50
Numbers only, as −log10 of the molar value.

Can you look up the measured pIC50 of O=C(NC[C@H](O)CN1CCc2ccccc2C1)c1ccnc(NC2CCC2)c1 for me?
5.85

* * *

tested on: panel of hematologic and solid cancer lines; test: 6-day in vitro growth/death assay; assay type: cell-based, human; details: HCC1143; read-out: gIC50
Consider the following compounds; for each one, report its pIC50.
One number for each entry, as −log10 of the molar value.

Hey, quick one: what's pIC50 for each of these?
1. CC(=O)N1CCC(Nc2cc(C(=O)NC[C@H](O)CN3CCc4ccccc4C3)ncn2)CC1
2. O=C(NC[C@H](O)CN1CCc2ccccc2C1)c1ccnc(NC2CCC2)c1

6.61
6.29

* * *

test system: panel of hematologic and solid cancer lines; test: 6-day in vitro growth/death assay; type: cell-based, human; details: Homo sapiens, IGROV-1, IGROV-1; read-out: gIC50
readout label: IC50
Answer with the number, then the unit.

Hi! What's the reported IC50 for O=C(NC[C@H](O)CN1CCc2ccccc2C1)c1ccnc(NC2CCC2)c1 on panel of hematologic and solid cancer lines?
189 nM

* * *

tested on: panel of hematologic and solid cancer lines; assay: 6-day in vitro growth/death assay; type: cell-based, human; conditions: T24; read-out: gIC50
readout label: pIC50
Numbers only, as −log10 of the molar value.

Can you look up the measured pIC50 of O=C(NC[C@H](O)CN1CCc2ccccc2C1)c1ccnc(NC2CCC2)c1 [GSK3203591] for me?
6.19

# next compound below
Can you look up the measured pIC50 of CC(=O)N1CCC(Nc2cc(C(=O)NC[C@H](O)CN3CCc4ccccc4C3)ncn2)CC1 [GSK3326595] for me?
6.12

* * *

test system: panel of 240 cancer cell lines; test: 10-day growth/death assay (Eurofins panel); assay type: cell-based; conditions: Homo sapiens, SK-BR-3, SK-BR-3; read-out: gIC50
readout label: pIC50
One number for each entry, as −log10 of the molar value.

Can you look up the measured pIC50 of O=C(NC[C@H](O)CN1CCc2ccccc2C1)c1ccnc(NC2CCC2)c1 [GSK3203591] for me?
7.12

* * *

tested on: panel of hematologic and solid cancer lines; assay: 6-day in vitro growth/death assay; type: cell-based, human; conditions: Pfeiffer; read-out: gIC50
readout label: IC50
Answer with the number, then the unit.

Hi! What's the reported IC50 for O=C(NC[C@H](O)CN1CCc2ccccc2C1)c1ccnc(NC2CCC2)c1 [GSK3203591] on panel of hematologic and solid cancer lines?
352 nM

* * *

system: panel of 240 cancer cell lines; test: 10-day growth/death assay (Eurofins panel); assay type: cell-based; details: Homo sapiens, A498, A498; read-out: gIC50
readout label: pIC50
One number for each entry, as −log10 of the molar value.

Can you look up the measured pIC50 of O=C(NC[C@H](O)CN1CCc2ccccc2C1)c1ccnc(NC2CCC2)c1 [GSK3203591] for me?
7.29
